Experiment: qHTS for Inhibitors of Plasmodium falciparum (DD2) proliferation (AID 504314);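 further: parasite DNA measured by SYBR Green fluorescence after red cell lysis; plate controls were DMSO vehicle for no effect and artemisinin wells for full effect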
Conditions: P. falciparum Dd2 in erythrocytes, SYBR Green growth, 72 h; series mostly up to 1.12 µM
Description: Plasmodium falciparum is a virulent malarial parasite that kills 1-2 million people worldwide each year. […] Because mature erythrocytes lack DNA, only Plasmodium-derived DNA is detected. […] Bennett TN, Paguio, M., Gligorijevic, B., Seudieu, C., Kosar, A. D., Davidson, E., and Roepe, P. D. Novel, rapid, and inexpensive cell-based quantification of antimalarial drug efficacy Antimicrobial Agents Chemother. […]
Results filed as inconclusive are left out. Active and inactive are the calls of the source. The call rests on the fitted dose curve; in most records, active means well fitted inhibition curve with a large enough effect; inconclusive means small, poorly fitted or top-dose-only effect; inactive means flat fitted curve, though single readings scatter.
measure: outcome

>  <compound>
COC(=O)C1=C(C(=O)OC)[C@@H]2Nc3ccccc3[C@@]23C[C@@H](C(=O)OC)N=C3N1

>  <outcome>
inactive

$$$$
>  <compound>
C=CC1=C2C=C(C3CC3)N(Cc3ccco3)C=C2C(=O)C(C)(OC(=O)c2ccco2)C1=O (stereo not drawn)

>  <outcome>
inactive

$$$$
>  <compound>
COC(=O)CCC(=O)OC1(C)C(=O)C2=CN(CCCCO)C(c3ccc(OC)cc3)=CC2=C(Br)C1=O (stereo not drawn)

>  <outcome>
inactive

$$$$
>  <compound>
COC(=O)C1=C(C(=O)OC)[C@@H]2N(C)c3ccc(OC)cc3[C@@]23C[C@@H](C(=O)OC)N(S(=O)(=O)c2ccc(C#N)cc2)C3=N1

>  <outcome>
inactive

$$$$
>  <compound>
COC(=O)CCC(=O)OC1(C)C(=O)C2=CN(c3ccc(OC)cc3)C(c3ccc(OC)cc3)=CC2=C(Br)C1=O (stereo not drawn)

>  <outcome>
inactive

$$$$

Kindly consider the entry below.
I would be grateful if you could share the reported outcome for CC#CCN1c2ccccc2[C@]23CCC(=O)N(CCCOC(C)C)C2=NC(C(=O)OC)=C(C(=O)OC)[C@H]13 . inactive

---

Assay: qHTS for Inhibitors of the vitamin D receptor (VDR): Hit Validation using a Cytotoxicity Assay (AID 602204); further: nearly all actives have a fitted effect of over 75% in size
Details: cytotoxicity counter-screen, cell viability; series mostly up to 48.3 µM
The list shows a part of the results. Results filed as inconclusive are left out. Active and inactive are the calls of the source. The call rests on the fitted dose curve; in most records, active means well fitted cell-killing curve with a large enough effect; inconclusive means small, poorly fitted or top-dose-only effect, or effect the other way; inactive means no such curve, though single readings can be large or run the other way.
Write down the outcome that applies. Available outcomes: yes (1) (active), no (0) (inactive)

Take a look at these entries with their results.
>  <molecule>
Cc1nc(-c2ccccc2)sc1C(=O)/C=C/c1ccccc1

>  <qualitative-label>
no (0)

$$$$
>  <molecule>
Cc1cccc([C@H]2[C@@H]3C=CC[C@@H](C)[C@@H]3C(=O)N2Cc2ccccc2)c1

>  <qualitative-label>
yes (1)

$$$$
>  <molecule>
CCOC(=O)c1sc(=S)n2c1[nH]c(=O)c1ccc(C(=O)OC)cc12

>  <qualitative-label>
no (0)

$$$$
>  <molecule>
CC(=O)N1CC[n+]2c(-c3ccc([N+](=O)[O-])cc3)csc21

>  <qualitative-label>
no (0)

$$$$
>  <molecule>
O=C(/C=C/c1ccccc1)c1ccccc1O

>  <qualitative-label>
no (0)

$$$$

Field: outcome | Entry: O=c1cc(CO)oc(C(Nc2cccc(C(F)(F)F)c2)c2ccccn2)c1O (centres undefined) no (0)

---

Target: Retinoic acid receptor RXR-alpha (Homo sapiens)
Assay: qHTS assay for small molecule antagonists of retinoid X receptor alpha signaling (AID 588546);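 further: cells stimulated with 9-cis-retinoic acid as agonist; on the % scale 0 is the no-effect control and ±100 the full control effect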
Settings: HEK293T RXRa-UAS-bla, beta-lactamase ratio, antagonist mode
Results filed as inconclusive are left out. Activity calls are given as the source filed them. The call rests on the fitted dose curve; in most records, active means well fitted inhibition curve with a large enough effect in the signal ratio, with a control signal flat (not every such curve was filed as active); inconclusive means small, poorly fitted or top-dose-only effect, or effect the other way, or a change in a side signal; inactive means no such curve, though single readings can be large or run the other way; the % refers to the signal ratio.
measure: max response

These recorded examples may help you get a feel for the data.
>  <compound>
CC1(C)C(C=C(Cl)Cl)[C@H]1C(=O)OCc1cccc(Oc2ccccc2)c1 (stereo not given in full)

>  <observed-value>
-0.468% (inactive)

$$$$
>  <compound>
Cc1ccc(N)c(S(=O)(=O)O)c1

>  <observed-value>
-14.4% (inactive)

$$$$
>  <compound>
CSC(=O)c1cccc2nnsc12

>  <observed-value>
12.7% (inactive)

$$$$

I would be grateful if you could share the reported max response for C[Si]1(C)O[Si](C)(C)O[Si](C)(C)O[Si](C)(C)O[Si](C)(C)O1 . 2.84% (inactive)

I would be grateful if you could share the reported max response for CC1=CC(=O)CC(C)(C)C1 . -18.4% (inactive)

I would be grateful if you could share the reported max response for C=Cc1ccccc1Br . -9.99% (inactive)

I would be grateful if you could share the reported max response for CCCC/C=C\CCCCCCCCO . -9.15% (inactive)

I would be grateful if you could share the reported max response for COC(=O)C1CCC(C(=O)OC)CC1 (stereo not given) . -11.5% (inactive)

I would be grateful if you could share the reported max response for C=C(C)C(=O)OCCN(C)C . 6.15% (inactive)

I would be grateful if you could share the reported max response for CCOCCOCCOC(C)=O . 7.1% (inactive)

I would be grateful if you could share the reported max response for OC1CCC(C2CCCCC2)CC1 (stereo not given) . 6.85% (inactive)

I would be grateful if you could share the reported max response for CCCCCCCC/C=C\CCCCCCCC(=O)OC . -0.729% (inactive)

I would be grateful if you could share the reported max response for CS/C(=N\O)C(=O)N(C)C . -15.6% (inactive)

I would be grateful if you could share the reported max response for O=C(O)c1cccc(C(=O)O)c1 . -3.25% (inactive)

I would be grateful if you could share the reported max response for COc1cc(Cl)c(OC)cc1N . -0.61% (inactive)

I would be grateful if you could share the reported max response for O=[N+]([O-])c1ccc2c(c1)Cc1ccccc1-2 . -11.9% (inactive)

I would be grateful if you could share the reported max response for CCCCCCCCCCCCCCCC . -1.47% (inactive)

I would be grateful if you could share the reported max response for CCO[Si](CCC#N)(OCC)OCC . -7.94% (inactive)

I would be grateful if you could share the reported max response for Nc1cc(Cl)nc(C(=O)O)c1Cl . -3.66% (inactive)

I would be grateful if you could share the reported max response for CC1=CC2C3CC(C=C3C)C2C1 (stereo not given) . 3.65% (inactive)

I would be grateful if you could share the reported max response for COC(OC)(C(=O)c1ccccc1)c1ccccc1 . -6.2% (inactive)

I would be grateful if you could share the reported max response for COC(=O)c1cccc(C(=O)OC)c1 . -0.335% (inactive)

I would be grateful if you could share the reported max response for CCOC(=O)C(C)Oc1ccc(Oc2cnc3cc(Cl)ccc3n2)cc1 (stereo not given) . -14.1% (inactive)
